The following compounds are shown together with reported GI50 values.
# tested_on: BaF3 TELJAK3 cells (Homo sapiens, UniProt P52333)
# Construct: fused on or other part: TEL (ETV6) N-terminal part, coding nucleotides 1-487, serves as the oligomerising partner; It is fused through a Sal I site to the JAK3 kinase domain and expressed from pTRE2 in BaF3 cells bearing pTET-off; P41212 (Transcription factor ETV6)
# Sequence (P52333 whole entry, change not shown, the tested form may be a part): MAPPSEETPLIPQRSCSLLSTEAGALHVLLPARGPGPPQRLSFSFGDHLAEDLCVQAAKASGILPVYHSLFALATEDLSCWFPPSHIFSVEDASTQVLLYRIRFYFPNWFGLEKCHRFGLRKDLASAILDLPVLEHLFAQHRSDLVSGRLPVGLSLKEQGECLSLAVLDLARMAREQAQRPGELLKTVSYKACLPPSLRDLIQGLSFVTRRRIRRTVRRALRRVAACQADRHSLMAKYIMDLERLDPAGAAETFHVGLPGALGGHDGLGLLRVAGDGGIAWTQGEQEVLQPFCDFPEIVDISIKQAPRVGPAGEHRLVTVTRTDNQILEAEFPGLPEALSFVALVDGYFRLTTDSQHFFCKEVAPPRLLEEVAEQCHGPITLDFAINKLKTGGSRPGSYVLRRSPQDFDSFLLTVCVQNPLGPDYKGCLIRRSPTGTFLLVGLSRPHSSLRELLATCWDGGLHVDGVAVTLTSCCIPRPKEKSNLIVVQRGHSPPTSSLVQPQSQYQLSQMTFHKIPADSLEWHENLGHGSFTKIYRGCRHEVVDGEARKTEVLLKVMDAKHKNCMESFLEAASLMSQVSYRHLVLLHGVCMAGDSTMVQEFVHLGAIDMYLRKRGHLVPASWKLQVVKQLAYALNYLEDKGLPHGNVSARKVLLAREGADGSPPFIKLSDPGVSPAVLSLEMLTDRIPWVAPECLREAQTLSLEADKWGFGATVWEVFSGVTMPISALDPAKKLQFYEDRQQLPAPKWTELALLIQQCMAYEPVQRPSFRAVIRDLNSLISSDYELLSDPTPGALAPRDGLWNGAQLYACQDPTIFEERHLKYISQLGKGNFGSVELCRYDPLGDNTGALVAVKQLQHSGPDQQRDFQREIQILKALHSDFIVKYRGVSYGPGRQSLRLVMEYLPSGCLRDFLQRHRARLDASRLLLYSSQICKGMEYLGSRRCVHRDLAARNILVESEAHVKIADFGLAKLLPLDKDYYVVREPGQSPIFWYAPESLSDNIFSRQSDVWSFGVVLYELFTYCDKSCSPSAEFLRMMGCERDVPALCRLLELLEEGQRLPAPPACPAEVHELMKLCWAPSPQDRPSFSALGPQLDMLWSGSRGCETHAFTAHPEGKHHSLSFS
# assay_notes: Cellular screening, BaF3 TEL:JAK3 cells, Alamar Blue
# Assay type: cell-based
# condition_notes: 40 hr, read-out: BafT_J3 IC50_nM

Look over these answered cases.
compound="C=CC(=O)Nc1ccc(Sc2nc(Nc3ccc(N4CCOCC4)c(OC)c3)ncc2C)cc1 [Compound 248]" tested_on="BaF3 TELJAK3 cells (Homo sapiens, UniProt P52333)" endpoint=GI50 result="< 1 µM"
compound="C=CC(=O)Nc1ccc(Sc2nc(Nc3cccc(O)c3)ncc2C)cc1 [Compound 281]" tested_on="BaF3 TELJAK3 cells (Homo sapiens, UniProt P52333)" endpoint=GI50 result="< 1 µM"
compound="CNC(=O)/C=C\\C(=O)Nc1ccc(Sc2nc(Nc3ccc(N4CCOCC4)cc3)ncc2C)cc1 [Compound 389]" tested_on="BaF3 TELJAK3 cells (Homo sapiens, UniProt P52333)" endpoint=GI50 result="< 1 µM"
compound="C=CC(=O)Nc1ccc(Sc2nc(Nc3cccc(N4CCOCC4)c3)ncc2F)cc1 [Compound 267]" tested_on="BaF3 TELJAK3 cells (Homo sapiens, UniProt P52333)" endpoint=GI50 result="< 1 µM"
compound="c1cc(Sc2ccc(Cn3cnnn3)cc2)nc(Nc2ccc(N3CCOCC3)cc2)n1 [Compound 109]" tested_on="BaF3 TELJAK3 cells (Homo sapiens, UniProt P52333)" endpoint=GI50 result="< 20 µM"
compound="C=CC(=O)Nc1cccc(Nc2nccc(Sc3ccccn3)n2)c1 [Compound 2]" tested_on="BaF3 TELJAK3 cells (Homo sapiens, UniProt P52333)" endpoint=GI50 result="< 1 µM"

Query: Specify GI50 for C=CC(=O)Nc1ccc(Sc2nc(Nc3cccc(NS(C)(=O)=O)c3)ncc2C)cc1 [Compound 288] and stop.
Response: < 1 µM

Query: Specify GI50 for Nc1ccc(Sc2nc(Nc3ccc(N4CCOCC4)cc3)ncc2I)cc1 [Compound 309] and stop.
Response: < 5 µM

Query: Specify GI50 for C=CC(=O)Nc1ccc(Sc2nc(Nc3ccc(OC)c(O)c3)ncc2C)cc1 [Compound 283] and stop.
Response: < 1 µM

Query: Specify GI50 for CC#CC(=O)Nc1ccc(Sc2nc(Nc3ccc(N4CCOCC4)cc3)ncc2C)cc1 [Compound 125] and stop.
Response: < 5 µM

Query: Specify GI50 for C=CC(=O)Nc1ccc(Sc2ccnc(Nc3ccc(S(=O)(=O)NCCC(C)C)cc3)n2)cc1 [Compound 371] and stop.
Response: < 5 µM
